Below, each of the binders is paired with its reported peptide exchange yield value.
- ASSAYED_SYSTEM: T1, HLA-A*02:01 (human)
- T1 construct: MHC monomers captured on streptavidin plates; the UV-sensitive peptide is cleaved and exchanged with the test peptide; also called peptide-receptive MHC molecules; MHC class I
- ASSAY_SUMMARY: UV ligand-exchange ELISA (anti-b2m); ++ = exchange yield >=20%

Recorded peptide exchange yield, per entry:
>  <BINDER>
AILNVDEKNQV

>  <REPORTED_MEASUREMENT>
20 to 50%

$$$$
>  <BINDER>
YLYELEHAL

>  <REPORTED_MEASUREMENT>
20 to 50%

$$$$
>  <BINDER>
ALDSTIAHL

>  <REPORTED_MEASUREMENT>
20 to 50%

$$$$
>  <BINDER>
AMLASQTEA

>  <REPORTED_MEASUREMENT>
20 to 50%

$$$$
>  <BINDER>
SLLNQPKAV

>  <REPORTED_MEASUREMENT>
20 to 50%

$$$$

Query: peptide exchange yield; subject: "AVPPPPSSV"
20 to 50%

Cool, now "VVAAHLAGA"
20 to 50%

Cool, now "ALDTTRHEL"
20 to 50%

Cool, now "HLQEKLQSL"
20 to 50%
